The reported measurements were obtained from patent US10710978B2.

biological target: MASTL (Homo sapiens (Human)); assay: KiNativ assay; format: binding; settings: H929 live cell, read-out: inhibition (10 μM)
Sequence (Q96GX5 whole entry): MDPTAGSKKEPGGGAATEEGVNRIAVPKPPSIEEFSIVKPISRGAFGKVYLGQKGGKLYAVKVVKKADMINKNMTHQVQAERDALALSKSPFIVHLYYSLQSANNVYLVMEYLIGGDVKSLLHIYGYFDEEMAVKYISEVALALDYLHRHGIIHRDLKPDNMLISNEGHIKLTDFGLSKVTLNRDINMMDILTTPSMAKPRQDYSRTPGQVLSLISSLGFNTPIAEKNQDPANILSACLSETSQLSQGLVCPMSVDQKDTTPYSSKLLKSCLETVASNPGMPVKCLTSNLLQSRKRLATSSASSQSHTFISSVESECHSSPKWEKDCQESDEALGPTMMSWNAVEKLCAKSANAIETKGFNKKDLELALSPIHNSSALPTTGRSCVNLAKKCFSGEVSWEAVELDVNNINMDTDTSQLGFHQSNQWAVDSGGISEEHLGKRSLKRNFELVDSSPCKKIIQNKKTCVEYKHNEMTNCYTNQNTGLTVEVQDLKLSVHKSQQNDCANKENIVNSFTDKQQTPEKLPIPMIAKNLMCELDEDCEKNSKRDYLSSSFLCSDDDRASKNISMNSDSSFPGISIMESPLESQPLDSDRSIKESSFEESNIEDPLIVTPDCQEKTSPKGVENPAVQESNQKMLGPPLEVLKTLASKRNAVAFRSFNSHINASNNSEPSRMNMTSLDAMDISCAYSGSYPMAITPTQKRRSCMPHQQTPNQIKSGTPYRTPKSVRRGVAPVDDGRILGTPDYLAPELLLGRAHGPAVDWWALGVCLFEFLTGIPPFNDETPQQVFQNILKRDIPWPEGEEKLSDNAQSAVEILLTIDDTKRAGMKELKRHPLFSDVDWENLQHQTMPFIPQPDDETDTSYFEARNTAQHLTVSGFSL
The reader will find reported inhibition at 10 µM values listed item by item below.

Example results:
Request: inhibition at 10 µM, test system MASTL (Homo sapiens (Human)), entry COc1cc(NS(=O)(=O)C2CC2)ccc1-c1cnc(N)c(-c2ccc3c(c2)CCNC3=O)c1 [Compound I-50]
-1.4%

Also Nc1ncc(-c2cccc3ncsc23)cc1-c1ccc2c(c1)CCNC2=O [Compound I-13] , if possible.
-2%

Same lookup for Nc1ncc(-c2cccc([N+](=O)[O-])c2F)cc1-c1ccc2c(c1)CCNC2=O [Compound I-9] , please.
-18.4%

Could you do the same for Nc1ncc(-c2ccc(NS(=O)(=O)C3CC3)cc2F)cc1-c1ccc2c(c1)CCNC2=O [Compound I-51] , please?
14.6%

// query: Nc1ncc(-c2ccc(NS(=O)(=O)C3CC3)cc2OC2CCCCC2)cc1-c1ccc2c(c1)CCNC2=O [Compound I-65]
-9.6%

Next up:
Identify the measured inhibition at 10 µM of CN(C1CC1)S(=O)(=O)c1ccc(-c2cnc(N)c(-c3ccc4c(c3)CCNC4=O)c2)c(F)c1 [Compound I-28] for MASTL (Homo sapiens (Human)).
10.2%

* * *

Biological target: CHK2 (Homo sapiens (Human), UniProt O96017)
Sequence (O96017 whole entry): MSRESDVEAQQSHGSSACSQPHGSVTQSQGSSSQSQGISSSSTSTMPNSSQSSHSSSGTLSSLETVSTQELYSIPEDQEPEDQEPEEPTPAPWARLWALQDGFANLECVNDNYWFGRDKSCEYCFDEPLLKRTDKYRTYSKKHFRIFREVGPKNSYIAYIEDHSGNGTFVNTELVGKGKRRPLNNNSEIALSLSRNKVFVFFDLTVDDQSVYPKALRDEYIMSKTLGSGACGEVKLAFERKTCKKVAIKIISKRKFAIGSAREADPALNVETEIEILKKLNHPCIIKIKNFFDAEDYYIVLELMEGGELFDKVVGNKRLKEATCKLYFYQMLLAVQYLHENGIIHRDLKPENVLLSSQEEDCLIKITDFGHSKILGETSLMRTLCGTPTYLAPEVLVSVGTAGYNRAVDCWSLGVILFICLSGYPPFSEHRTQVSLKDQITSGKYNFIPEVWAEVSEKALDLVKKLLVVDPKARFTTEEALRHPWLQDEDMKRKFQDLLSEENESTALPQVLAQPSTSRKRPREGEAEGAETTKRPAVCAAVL
Assay: KiNativ assay
Format: binding
Conditions: H929 live cell, read-out: inhibition (10 μM)
Method: Biochemical IC50s of the compounds of the present disclosure against various kinases were measured in a KiNativ assay. Compounds were screened in duplicate at 10 μM in H929 live cell. IC50 was measured via Mass spectroscopy (MS).
Threshold check on inhibition at 10 µM: at or above 20% gives y, strictly below gives n.

Form field: inhibition at 10 µM at least 20%? Entry: "CN(C1CC1)S(=O)(=O)c1ccc(-c2cnc(N)c(-c3ccc4c(c3)CCNC4=O)c2)c(F)c1"
n

Next: "Nc1ncc(-c2ccc(NS(=O)(=O)C3CC3)cc2OC2CCCCC2)cc1-c1ccc2c(c1)CCNC2=O"
n

Lookup "COc1cc(NS(=O)(=O)C2CC2)ccc1-c1cnc(N)c(-c2ccc3c(c2)CCNC3=O)c1"
n

Another molecule to look at: "Nc1ncc(-c2ccc(NS(=O)(=O)C3CC3)cc2F)cc1-c1ccc2c(c1)CCNC2=O"
n

New cases:
Determine whether this molecule has inhibition at 10 µM no lower than 20%: "Nc1ncc(-c2cccc([N+](=O)[O-])c2F)cc1-c1ccc2c(c1)CCNC2=O"
y

* * *

biological target: CK1g2 (Homo sapiens (Human)); test: KiNativ assay; assay type: binding; settings: H929 live cell, read-out: inhibition (10 μM)
Sequence (P78368 whole entry): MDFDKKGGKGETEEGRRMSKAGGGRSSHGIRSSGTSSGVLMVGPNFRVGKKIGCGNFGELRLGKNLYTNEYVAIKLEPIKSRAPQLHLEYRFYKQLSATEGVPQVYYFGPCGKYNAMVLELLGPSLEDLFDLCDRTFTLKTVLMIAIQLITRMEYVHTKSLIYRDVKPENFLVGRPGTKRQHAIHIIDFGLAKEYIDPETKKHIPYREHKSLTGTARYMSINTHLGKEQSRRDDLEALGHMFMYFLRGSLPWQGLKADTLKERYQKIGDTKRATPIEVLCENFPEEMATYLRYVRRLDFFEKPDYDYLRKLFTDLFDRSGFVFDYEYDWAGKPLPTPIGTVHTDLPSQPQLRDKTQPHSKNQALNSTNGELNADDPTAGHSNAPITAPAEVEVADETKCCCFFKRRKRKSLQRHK
// values below are reported inhibition at 10 µM
Reply with just the number (in %).

Look over these answered cases.
Param readout = inhibition at 10 µM; param system = CK1g2 (Homo sapiens (Human)); param query = "Nc1ncc(-c2ccc(NS(=O)(=O)C3CC3)cc2F)cc1-c1ccc2c(c1)CCNC2=O" ; response: value
84.1

"COc1cc(NS(=O)(=O)C2CC2)ccc1-c1cnc(N)c(-c2ccc3c(c2)CCNC3=O)c1" ?
79.9

Now consider a different compound.
// map "Nc1ncc(-c2ccc(NS(=O)(=O)C3CC3)cc2OC2CCCCC2)cc1-c1ccc2c(c1)CCNC2=O" to recorded inhibition at 10 µM (system: CK1g2 (Homo sapiens (Human)))
74.5

* * *

test system: Wnk1, Wnk2, Wnk3; experiment: KiNativ assay; format: binding; settings: H929 live cell
Lab note: anything with inhibition (10 μM) at or over -30% counts as Satisfied; the rest go in Not satisfied.

API: above_or_equal(metric=inhibition (10 μM), cutoff=-30%) for item "Nc1ncc(-c2cccc([N+](=O)[O-])c2F)cc1-c1ccc2c(c1)CCNC2=O"
Not satisfied

Next entry: "Nc1ncc(-c2ccc(NS(=O)(=O)C3CC3)cc2F)cc1-c1ccc2c(c1)CCNC2=O"
Satisfied

Follow-up entry: "COc1cc(NS(=O)(=O)C2CC2)ccc1-c1cnc(N)c(-c2ccc3c(c2)CCNC3=O)c1"
Satisfied

Can you handle "Nc1ncc(-c2ccc(NS(=O)(=O)C3CC3)cc2OC2CCCCC2)cc1-c1ccc2c(c1)CCNC2=O" next?
Satisfied

For "Nc1ncc(-c2cccc3ncsc23)cc1-c1ccc2c(c1)CCNC2=O" then?
Not satisfied

Please examine the following record next.
Test whether the compound "CN(C1CC1)S(=O)(=O)c1ccc(-c2cnc(N)c(-c3ccc4c(c3)CCNC4=O)c2)c(F)c1" records inhibition (10 μM) of -30% or higher.
Not satisfied

* * *

Biological target: CSK (Homo sapiens (Human))
Sequence (P41240 whole entry): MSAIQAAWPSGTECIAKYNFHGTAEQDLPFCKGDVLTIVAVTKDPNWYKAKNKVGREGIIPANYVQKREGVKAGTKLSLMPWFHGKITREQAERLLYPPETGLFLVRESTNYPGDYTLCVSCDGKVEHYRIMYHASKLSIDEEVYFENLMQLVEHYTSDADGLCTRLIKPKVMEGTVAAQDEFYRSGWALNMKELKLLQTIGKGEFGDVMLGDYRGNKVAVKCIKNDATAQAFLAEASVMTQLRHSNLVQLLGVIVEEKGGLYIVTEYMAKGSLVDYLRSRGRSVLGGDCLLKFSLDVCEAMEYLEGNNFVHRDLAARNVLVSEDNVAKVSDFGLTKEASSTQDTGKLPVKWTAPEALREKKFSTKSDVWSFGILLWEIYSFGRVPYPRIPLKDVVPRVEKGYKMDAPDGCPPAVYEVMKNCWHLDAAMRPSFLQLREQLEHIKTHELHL
Test: KiNativ assay
Format: binding
Settings: H929 live cell, read-out: inhibition (10 μM)
Protocol: Biochemical IC50s of the compounds of the present disclosure against various kinases were measured in a KiNativ assay. Compounds were screened in duplicate at 10 μM in H929 live cell. IC50 was measured via Mass spectroscopy (MS).
measuredParameter: inhibition at 10 µM (%)
Numeric only. Scale: %

Any idea what inhibition at 10 µM was measured for Nc1ncc(-c2ccc(NS(=O)(=O)C3CC3)cc2F)cc1-c1ccc2c(c1)CCNC2=O [Compound I-51] ?
6.9

And what about the compound COc1cc(NS(=O)(=O)C2CC2)ccc1-c1cnc(N)c(-c2ccc3c(c2)CCNC3=O)c1 [Compound I-50] ?
-4.3

Proceed to Nc1ncc(-c2cccc([N+](=O)[O-])c2F)cc1-c1ccc2c(c1)CCNC2=O [Compound I-9]
-4.5

Could you do the same for CN(C1CC1)S(=O)(=O)c1ccc(-c2cnc(N)c(-c3ccc4c(c3)CCNC4=O)c2)c(F)c1 [Compound I-28] , please?
3.7

Next compound: Nc1ncc(-c2ccc(NS(=O)(=O)C3CC3)cc2OC2CCCCC2)cc1-c1ccc2c(c1)CCNC2=O [Compound I-65]
0.1

Now turn to the next compound.
// lookup inhibition at 10 µM for Nc1ncc(-c2cccc3ncsc23)cc1-c1ccc2c(c1)CCNC2=O [Compound I-13]
4.7

* * *

molecular target: NEK4 (Homo sapiens (Human), UniProt P51957); test: KiNativ assay; format: binding; settings: H929 live cell, read-out: inhibition (10 μM)
Sequence (P51957 whole entry): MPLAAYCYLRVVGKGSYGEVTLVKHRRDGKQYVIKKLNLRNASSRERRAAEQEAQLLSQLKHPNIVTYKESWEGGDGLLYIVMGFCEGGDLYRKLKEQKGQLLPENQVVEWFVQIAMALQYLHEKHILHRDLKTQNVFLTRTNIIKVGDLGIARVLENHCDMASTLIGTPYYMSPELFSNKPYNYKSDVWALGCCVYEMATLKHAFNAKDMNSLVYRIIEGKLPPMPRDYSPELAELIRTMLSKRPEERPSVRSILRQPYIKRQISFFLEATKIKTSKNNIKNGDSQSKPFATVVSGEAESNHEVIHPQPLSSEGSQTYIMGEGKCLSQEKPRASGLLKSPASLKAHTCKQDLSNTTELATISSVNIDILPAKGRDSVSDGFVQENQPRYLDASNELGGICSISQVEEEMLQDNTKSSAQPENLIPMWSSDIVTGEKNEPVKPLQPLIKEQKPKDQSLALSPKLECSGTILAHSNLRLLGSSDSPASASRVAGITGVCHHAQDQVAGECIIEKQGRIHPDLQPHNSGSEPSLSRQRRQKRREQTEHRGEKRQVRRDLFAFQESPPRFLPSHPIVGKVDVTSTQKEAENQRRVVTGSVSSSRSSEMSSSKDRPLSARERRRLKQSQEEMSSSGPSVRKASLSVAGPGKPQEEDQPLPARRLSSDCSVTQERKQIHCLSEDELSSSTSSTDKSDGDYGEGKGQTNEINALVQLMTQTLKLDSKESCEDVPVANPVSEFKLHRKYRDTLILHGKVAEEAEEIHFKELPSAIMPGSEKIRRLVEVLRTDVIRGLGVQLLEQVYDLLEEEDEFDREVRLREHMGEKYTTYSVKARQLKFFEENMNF
List of inhibition at 10 µM values.
Numbers only here, please. The scale is %.

Examples with their reported inhibition at 10 µM follow.
Entry under review: "Nc1ncc(-c2cccc3ncsc23)cc1-c1ccc2c(c1)CCNC2=O" . Reported inhibition at 10 µM?
4.7

How about "Nc1ncc(-c2ccc(NS(=O)(=O)C3CC3)cc2F)cc1-c1ccc2c(c1)CCNC2=O" ?
25.8

Same question for "Nc1ncc(-c2cccc([N+](=O)[O-])c2F)cc1-c1ccc2c(c1)CCNC2=O" please.
67

Moving on to "Nc1ncc(-c2ccc(NS(=O)(=O)C3CC3)cc2OC2CCCCC2)cc1-c1ccc2c(c1)CCNC2=O"
23.7

One more compound: "CN(C1CC1)S(=O)(=O)c1ccc(-c2cnc(N)c(-c3ccc4c(c3)CCNC4=O)c2)c(F)c1"
-2.8

Next:
inhibition at 10 µM for "COc1cc(NS(=O)(=O)C2CC2)ccc1-c1cnc(N)c(-c2ccc3c(c2)CCNC3=O)c1" ?
25.1

* * *

// reported inhibition at 10 µM per item
molecular target: PRPK (Homo sapiens (Human), UniProt Q96S44); experiment: KiNativ assay; type: binding; conditions: H929 live cell, read-out: inhibition (10 μM)
Sequence (Q96S44 whole entry): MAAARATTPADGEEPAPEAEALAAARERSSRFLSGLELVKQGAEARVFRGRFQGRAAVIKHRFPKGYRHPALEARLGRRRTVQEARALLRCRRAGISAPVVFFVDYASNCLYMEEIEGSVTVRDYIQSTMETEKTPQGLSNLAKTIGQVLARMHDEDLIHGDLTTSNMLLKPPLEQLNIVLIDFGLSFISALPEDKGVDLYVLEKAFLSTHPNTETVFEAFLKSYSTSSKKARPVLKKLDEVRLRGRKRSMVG
Record the result as number plus unit.

# count of solved cases: 5
For the compound "CN(C1CC1)S(=O)(=O)c1ccc(-c2cnc(N)c(-c3ccc4c(c3)CCNC4=O)c2)c(F)c1" , what inhibition at 10 µM is on record?
10.1%

Lookup "Nc1ncc(-c2ccc(NS(=O)(=O)C3CC3)cc2OC2CCCCC2)cc1-c1ccc2c(c1)CCNC2=O"
-55.9%

Request: "Nc1ncc(-c2ccc(NS(=O)(=O)C3CC3)cc2F)cc1-c1ccc2c(c1)CCNC2=O"
-47.4%

Then this compound: "Nc1ncc(-c2cccc3ncsc23)cc1-c1ccc2c(c1)CCNC2=O"
-6.4%

Entry "Nc1ncc(-c2cccc([N+](=O)[O-])c2F)cc1-c1ccc2c(c1)CCNC2=O" please
-5%

Turning now to a further compound:
Could you share which inhibition at 10 µM value was measured for "COc1cc(NS(=O)(=O)C2CC2)ccc1-c1cnc(N)c(-c2ccc3c(c2)CCNC3=O)c1" ?
-23.6%

* * *

Items are presented alongside their recorded inhibition at 10 µM.
Biological target: PIK3CG (Homo sapiens (Human), UniProt P48736)
Sequence (P48736 whole entry): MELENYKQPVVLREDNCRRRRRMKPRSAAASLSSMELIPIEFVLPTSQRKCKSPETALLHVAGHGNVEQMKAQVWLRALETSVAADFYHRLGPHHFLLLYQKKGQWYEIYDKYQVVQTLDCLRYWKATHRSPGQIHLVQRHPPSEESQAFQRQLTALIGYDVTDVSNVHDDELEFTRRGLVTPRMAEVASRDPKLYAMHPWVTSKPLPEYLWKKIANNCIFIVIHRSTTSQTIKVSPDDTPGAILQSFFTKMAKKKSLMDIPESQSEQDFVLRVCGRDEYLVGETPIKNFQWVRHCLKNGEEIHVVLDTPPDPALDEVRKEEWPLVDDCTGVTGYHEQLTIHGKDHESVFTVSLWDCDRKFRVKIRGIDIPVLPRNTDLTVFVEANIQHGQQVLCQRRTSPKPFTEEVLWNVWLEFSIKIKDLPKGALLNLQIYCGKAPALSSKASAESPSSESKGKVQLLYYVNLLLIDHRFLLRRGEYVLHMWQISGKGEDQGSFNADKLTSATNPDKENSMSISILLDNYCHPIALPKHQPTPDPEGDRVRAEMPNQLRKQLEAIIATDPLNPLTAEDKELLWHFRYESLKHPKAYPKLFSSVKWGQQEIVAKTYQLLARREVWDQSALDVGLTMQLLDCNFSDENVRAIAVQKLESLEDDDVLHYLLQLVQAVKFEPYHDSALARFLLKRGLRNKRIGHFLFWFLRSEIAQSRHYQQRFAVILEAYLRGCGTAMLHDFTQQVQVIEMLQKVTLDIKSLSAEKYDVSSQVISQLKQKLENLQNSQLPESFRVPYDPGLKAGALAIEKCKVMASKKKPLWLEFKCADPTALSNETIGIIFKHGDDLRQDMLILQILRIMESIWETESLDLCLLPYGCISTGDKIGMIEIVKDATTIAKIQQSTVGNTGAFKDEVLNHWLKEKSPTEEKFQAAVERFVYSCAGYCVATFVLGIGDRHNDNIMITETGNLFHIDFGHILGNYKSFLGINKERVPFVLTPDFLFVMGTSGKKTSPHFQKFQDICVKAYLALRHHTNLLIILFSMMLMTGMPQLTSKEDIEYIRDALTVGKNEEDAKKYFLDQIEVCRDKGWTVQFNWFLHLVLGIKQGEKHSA
Assay: KiNativ assay
Assay type: binding
Settings: H929 live cell, read-out: inhibition (10 μM)
Protocol: Biochemical IC50s of the compounds of the present disclosure against various kinases were measured in a KiNativ assay. Compounds were screened in duplicate at 10 μM in H929 live cell. IC50 was measured via Mass spectroscopy (MS).
Dear colleague, please return just the value in %, with no unit written.

May I ask what inhibition at 10 µM has been recorded for Nc1ncc(-c2ccc(NS(=O)(=O)C3CC3)cc2OC2CCCCC2)cc1-c1ccc2c(c1)CCNC2=O [Compound I-65] ?
-64

Field entry: Nc1ncc(-c2ccc(NS(=O)(=O)C3CC3)cc2F)cc1-c1ccc2c(c1)CCNC2=O [Compound I-51]
-146

Check COc1cc(NS(=O)(=O)C2CC2)ccc1-c1cnc(N)c(-c2ccc3c(c2)CCNC3=O)c1 [Compound I-50] too.
-74.9

For Nc1ncc(-c2cccc([N+](=O)[O-])c2F)cc1-c1ccc2c(c1)CCNC2=O [Compound I-9] then?
16.3

Same lookup for CN(C1CC1)S(=O)(=O)c1ccc(-c2cnc(N)c(-c3ccc4c(c3)CCNC4=O)c2)c(F)c1 [Compound I-28] , please.
1.7

Then this molecule:
Reported inhibition at 10 µM for Nc1ncc(-c2cccc3ncsc23)cc1-c1ccc2c(c1)CCNC2=O [Compound I-13] : what is it?
12.4
